molecular target: hepatitis C virus RNA dependent polymerase (NS5B) (Hepatitis C virus genotype 1b); construct: the RNA dependent RNA polymerase of HCV, specifically, the enzyme NS5B encoded by HCV; assay: Inhibition of NS5B RNA dependent RNA polymerase activity; format: biochemical; settings: assay of Example 158A; read-out: IC50 (nM) Ex 158A (converted)
Sequence (P26663 2420-3010): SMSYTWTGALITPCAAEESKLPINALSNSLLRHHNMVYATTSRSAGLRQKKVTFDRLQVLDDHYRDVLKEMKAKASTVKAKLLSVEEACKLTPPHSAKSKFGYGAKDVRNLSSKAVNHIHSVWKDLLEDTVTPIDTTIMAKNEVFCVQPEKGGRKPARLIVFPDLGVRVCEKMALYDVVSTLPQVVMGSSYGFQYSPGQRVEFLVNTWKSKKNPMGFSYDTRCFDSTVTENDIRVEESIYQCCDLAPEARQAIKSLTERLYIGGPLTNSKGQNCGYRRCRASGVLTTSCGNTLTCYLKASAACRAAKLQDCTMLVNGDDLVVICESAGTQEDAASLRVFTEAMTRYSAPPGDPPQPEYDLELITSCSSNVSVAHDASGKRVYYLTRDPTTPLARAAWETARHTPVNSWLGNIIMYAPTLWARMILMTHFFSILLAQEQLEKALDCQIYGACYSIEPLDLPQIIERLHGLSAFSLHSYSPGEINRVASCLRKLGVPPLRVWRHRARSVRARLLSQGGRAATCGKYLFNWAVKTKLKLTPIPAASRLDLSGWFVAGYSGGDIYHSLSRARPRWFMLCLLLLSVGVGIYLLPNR
I'd appreciate it if you could label each record using IC50 and these ranges: lower segment = under 20 nM, middle segment = from 20 nM up to 100 nM, upper segment = 100 nM and over

smiles_string	assayed_target	label_value
N#Cc1cc(-c2cccc(Oc3ccc4c(c3)c(=O)ncn4Cc3c(F)cc(F)cc3F)c2C(F)(F)F)cnc1N	hepatitis C virus RNA dependent polymerase (NS5B) (Hepatitis C virus genotype 1b)	middle segment
CN(C)C(=O)c1cccc(Oc2ccc3c(c2)c(=O)ncn3Cc2c(F)cc(F)cc2F)c1	hepatitis C virus RNA dependent polymerase (NS5B) (Hepatitis C virus genotype 1b)	upper segment
O=c1ncn(Cc2c(F)cc(F)cc2F)c2ccc(Oc3ncc(Cc4nn[nH]n4)cc3C(F)(F)F)cc12	hepatitis C virus RNA dependent polymerase (NS5B) (Hepatitis C virus genotype 1b)	middle segment
Cc1ccc(Cn2cnc(=O)c3cc(Oc4ccc(C(N)=O)cc4)ccc32)c(F)c1	hepatitis C virus RNA dependent polymerase (NS5B) (Hepatitis C virus genotype 1b)	upper segment
O=c1ncn(Cc2c(F)cc(F)cc2F)c2ccc(Oc3cccc(-c4cccc5[nH]ccc45)c3C(F)(F)F)cc12	hepatitis C virus RNA dependent polymerase (NS5B) (Hepatitis C virus genotype 1b)	middle segment
O=c1ncn(Cc2c(F)cc(F)cc2F)c2ccc(Oc3cccc(-c4ccc5nonc5c4)c3C(F)(F)F)cc12	hepatitis C virus RNA dependent polymerase (NS5B) (Hepatitis C virus genotype 1b)	upper segment
C[C@H](c1c(F)cc(F)cc1F)n1cnc(=O)c2cc(Oc3cccc(-c4ncc(N)cn4)c3C(F)(F)F)ccc21	hepatitis C virus RNA dependent polymerase (NS5B) (Hepatitis C virus genotype 1b)	lower segment
Cc1c(-c2cccc(Oc3ccc4c(c3)c(=O)ncn4Cc3c(F)cc(F)cc3F)c2C(F)(F)F)cnn1-c1ccccc1	hepatitis C virus RNA dependent polymerase (NS5B) (Hepatitis C virus genotype 1b)	middle segment
Cc1nc(-c2cccc(Oc3ccc4c(c3)c(=O)ncn4[C@H](C)c3c(F)cc(F)cc3F)c2C(F)(F)F)ncc1N	hepatitis C virus RNA dependent polymerase (NS5B) (Hepatitis C virus genotype 1b)	lower segment
O=c1ncn(Cc2c(F)cc(F)cc2F)c2ccc(O[C@H]3CC[C@H](CO)CC3)cc12	hepatitis C virus RNA dependent polymerase (NS5B) (Hepatitis C virus genotype 1b)	upper segment
O=c1ncn(Cc2ccc(F)cc2F)c2ccc(Oc3ncc(Cn4nccn4)cc3C(F)(F)F)cc12	hepatitis C virus RNA dependent polymerase (NS5B) (Hepatitis C virus genotype 1b)	upper segment
Cc1ccc(Cn2cnc(=O)c3cc(Oc4ncccc4C(F)(F)F)ccc32)c(-c2ccsc2)c1	hepatitis C virus RNA dependent polymerase (NS5B) (Hepatitis C virus genotype 1b)	upper segment
CCNc1ccc(-c2cccc(Oc3ccc4c(c3)c(=O)ncn4[C@H](C)c3c(F)cc(F)cc3F)c2C(F)(F)F)cn1	hepatitis C virus RNA dependent polymerase (NS5B) (Hepatitis C virus genotype 1b)	middle segment
C[C@H](c1c(F)cc(F)cc1F)n1cnc(=O)c2cc(Oc3cccc(-c4ccc(N)nc4)c3C(F)(F)F)ccc21	hepatitis C virus RNA dependent polymerase (NS5B) (Hepatitis C virus genotype 1b)	lower segment
